# target desc: T1, PUF4 RNA-binding domain (Saccharomyces cerevisiae, UniProt P25339 537-888)
# T1 sequence: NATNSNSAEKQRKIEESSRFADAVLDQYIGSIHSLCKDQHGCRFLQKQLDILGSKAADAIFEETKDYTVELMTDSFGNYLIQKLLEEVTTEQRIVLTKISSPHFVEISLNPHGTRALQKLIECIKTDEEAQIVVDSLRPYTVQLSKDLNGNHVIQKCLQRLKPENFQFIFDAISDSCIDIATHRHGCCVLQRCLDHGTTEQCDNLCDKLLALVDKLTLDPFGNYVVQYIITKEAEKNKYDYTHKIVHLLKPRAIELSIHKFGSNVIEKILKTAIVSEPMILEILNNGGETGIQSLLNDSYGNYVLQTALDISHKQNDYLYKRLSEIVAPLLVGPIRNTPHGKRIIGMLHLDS
# assay text: Mg; RNA-MaP; 20 mM Na-HEPES pH 7.4, 30 mM KOAc, 0.75 mM MgCl2, 0.1% Tween-20, 5% glycerol, 0.1 mg/mL BSA, 2 mM DTT; 25 C; 0.0125-409.6 nM protein
# condition details: tags: N-His6-TEV cleaved; C-SNAP kept, Cy3B-labelled; label: tethered on chip by stalled RNA polymerase
Reported Kd values follow for various binders

binder: UCUCUUUUUAUAUAUAGUUCUCUU (ssRNA) [Id_ii_S1_P3E.3_K3.2_C3.2_[C-2T]_H3.2_A3.1_F3.1_T3.2_[T9G]_[A10T]]
qualifier operator: =
Kd / nM: 272
//
binder: Ic_S4_P4E.1_K4.1_C4.1_H4.1_A4.1_[A6T]_[T7C]_F4.1_[A9C]_T4.1 (ssRNA) RNA: UUUGACAACUGAUCGUUCUUUCUUGUAUUCUCUUCUUUCUCGAUCAGUUGUCUUU
qualifier operator: =
Kd / nM: 34.4
//
binder: Ie_S4_P4E.1_K4.1_C4.1_H4.1_[+3TCT]_A4.1_F4.1_T4.1 (ssRNA) RNA: UUUGACAACUGAUCGUUCUUUCUUGUUCUAUAUUAUUCUUUCUCGAUCAGUUGUCUUU
qualifier operator: =
Kd / nM: 6.36
//
binder: ACAAACUCACACUAUAGAACAAAC (ssRNA) [Id_ii_S3_P3E.4_K3.3_C3.2_[C-2T]_[T-1C]_H3.3_A3.1_F3.1_T3.2_[T9G]]
qualifier operator: >
Kd / nM: 2300
//
binder: Ib_S4_P5E.1_K5.1_C5.1_H5.1_[G2C]_[A4T]_A5.1_F5.1_T5.1 (ssRNA) RNA: UUUGACAACUGAUCGUUCUUUCUUCUUUUAUUAUUCUUUCUCGAUCAGUUGUCUUU
qualifier operator: >
Kd / nM: 2300
//
binder: Ic_S2_P3E.1_K3.1_C3.1_H3.1_A3.1_[A6T]_F3.1_T3.1 (ssRNA) RNA: UUUGAUUAAUAUGAUAUCGUUCUUUCUUGUAUUUAUUCUUUCUCGAUAUCAUAUUAAUCUUU
qualifier operator: =
Kd / nM: 11.4
